tested on: Isocitrate dehydrogenase [NADP] cytoplasmic (Homo sapiens), O75874 [R132C]; experiment: Inhibition of recombinant human IDH1 R132C mutant extracted from Escherichia coli BL21 (DE3) cells using alpha-ketoglutarate as substrate at 2 uM incubated for 60 mins in presence of NADPH by absorbance based assay relative to control
Sequence (O75874 whole entry R132C): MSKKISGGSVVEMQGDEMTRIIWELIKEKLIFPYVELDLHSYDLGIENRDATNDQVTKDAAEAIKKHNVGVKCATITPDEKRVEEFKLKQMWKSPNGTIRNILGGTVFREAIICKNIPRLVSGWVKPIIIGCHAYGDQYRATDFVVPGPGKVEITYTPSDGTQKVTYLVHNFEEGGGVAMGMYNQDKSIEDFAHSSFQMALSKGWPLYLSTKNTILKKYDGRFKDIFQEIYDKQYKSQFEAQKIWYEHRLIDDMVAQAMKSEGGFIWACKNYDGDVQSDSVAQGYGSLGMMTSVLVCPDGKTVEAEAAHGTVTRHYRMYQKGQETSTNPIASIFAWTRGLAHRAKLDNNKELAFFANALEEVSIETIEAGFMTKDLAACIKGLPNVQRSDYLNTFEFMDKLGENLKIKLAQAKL
Quick reference for inhibition among some compounds
property: inhibition

1) COc1cc(O)c(-c2cc(-c3ccc(O)cc3)nc(C3CCCO3)n2)cc1CC=C(C)C (stereo not drawn)	70.4%
2) COc1cc(O)c(-c2cc(-c3ccc(O)cc3)nc(-c3nn(Cc4ccccc4F)c4ncccc34)n2)cc1CC=C(C)C	81.9%
3) COc1cc(O)c(-c2cc(-c3ccc(O)cc3)nc(N)n2)cc1CC=C(C)C	47.5%
4) COc1cc(O)c(-c2cc(-c3ccc(O)cc3)nc(-c3nccs3)n2)cc1CC=C(C)C	56.3%
5) COc1cc(O)c(-c2cc(-c3ccc(O)cc3)nc(C)n2)cc1CC=C(C)C	67.2%
6) COc1cc(O)c(C(=O)/C=C/c2ccc(O)cc2)cc1CC=C(C)C	46.3%
7) COc1cc(O)c(-c2cc(-c3ccc(O)cc3)nc(N3CCCCC3)n2)cc1CC=C(C)C	89.7%

Reference source: ChEMBL document CHEMBL5608173
